Measured efficacy by item
- Test system: Plasmopara viticola
- assay-name: Plasmopara test (grapevine)/protective
- Format: in vivo
- condition-notes: grapevine plants, protective spray, 10 ppm active ingredient, evaluation 6 days after inoculation; 0% = control, 100% = no infection
Respond numerically; units are % and should not be typed.

Guide cases for efficacy, answers given:
INPUT: Given the entry C#CCOc1cccc(C2CC(c3csc(C4CCN(C(=O)Cn5nc(C(F)F)cc5C(F)F)CC4)n3)=NO2)c1 (racemic) [I-21] , report its measured efficacy.
OUTPUT: 100

INPUT: For CS(=O)(=O)Nc1ccc(C2CC(c3csc(C4CCN(C(=O)Cn5nc(C(F)F)cc5C(F)F)CC4)n3)=NO2)cc1 (racemic) [I-40] then?
OUTPUT: 91

New cases:
INPUT: Given the entry O=C(Cn1nc(C(F)F)cc1C(F)F)N1CCC(F)(c2nc(C3=NOC(c4c(F)cccc4F)C3)cs2)CC1 (racemic) [I-6] , report its measured efficacy.
OUTPUT: 100

INPUT: For O=C(Cn1nc(C(F)F)cc1C(F)F)N1CCC(F)(c2nc(C3=NOC(c4ccccc4F)C3)cs2)CC1 (racemic) [I-4] then?
OUTPUT: 100

INPUT: For O=C(Cn1nc(C(F)F)cc1C(F)F)N1CCC(c2nc(-c3cc(-c4ccccc4)on3)cs2)CC1 [I-3] then?
OUTPUT: 100

INPUT: For C#CCOc1ccccc1C1CC(c2csc(C3CCN(C(=O)Cn4nc(C(F)F)cc4C(F)F)CC3)n2)=NO1 (racemic) [I-39] then?
OUTPUT: 99

INPUT: For O=C(Cn1nc(C(F)F)cc1C(F)F)N1CCC(c2nc(C3=NOC(c4ccccc4)C3)cs2)CC1 (racemic) [I-1] then?
OUTPUT: 100
